Data origin, for the record: patent EP1985624A2

// reported Ki per item
# tgt: human bombesin 2 receptor (GRPR) (Homo sapiens, UniProt P30550)
# Construct: using GRPR-containing cell membranes (Perkin Elmer); purchased Perkin Elmer
# Sequence (P30550 whole entry): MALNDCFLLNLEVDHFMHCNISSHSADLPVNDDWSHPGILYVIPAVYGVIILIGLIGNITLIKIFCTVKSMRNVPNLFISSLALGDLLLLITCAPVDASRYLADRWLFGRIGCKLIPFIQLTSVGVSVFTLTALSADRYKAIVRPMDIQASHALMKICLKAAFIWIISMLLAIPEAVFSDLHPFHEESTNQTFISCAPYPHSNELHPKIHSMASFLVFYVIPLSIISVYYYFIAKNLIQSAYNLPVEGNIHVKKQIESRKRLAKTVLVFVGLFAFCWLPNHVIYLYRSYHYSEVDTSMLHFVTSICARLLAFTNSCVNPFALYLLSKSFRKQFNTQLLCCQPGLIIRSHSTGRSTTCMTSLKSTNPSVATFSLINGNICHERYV
# measurement.notes: competitive receptor-binding assay (scintillation proximity assay) with 125I-[Tyr4]-Bombesin
*1 amine or outer side, *2 acyl side, *3 side chain or, on linkers, in order; H or OH if unused. Where a SMILES comes first, the peptide text is derived from it. [ ]: non-standard residue; d: D form. The star is where a group is joined. Benzoyl(3-CN,4-F) = N#Cc1cc(C(=O)*)ccc1F; Benzoyl(3,4-F2) = O=C(c1ccc(F)c(F)c1)*; NMeH = CN[C@@H](Cc1c[nH]cn1)C(=O)O; X1 = CCC(C)C(CCC(=O)[*:2])N[*:1]; Ava = NCCCCC(=O)O; βAla = NCCC(=O)O

[
  {
    "compound": "CC(C)C[C@H](NC(=O)[C@H](Cc1ccccc1)NC(=O)[C@@H](Cc1c[nH]cn1)NC(=O)CCNC(=O)[C@@H](NC(=O)[C@H](C)NC(=O)[C@H](Cc1c[nH]c2ccccc12)NC(=O)[C@H](CCC(N)=O)NC(=O)CCCCNC(=O)c1ccc(F)c(F)c1)C(C)C)C(N)=O [IIB-a-55] ({Benzoyl(3,4-F2)-Ava}-QWAV[βAla][dH]FL-NH2)",
    "Ki": "19 nM"
  },
  {
    "compound": "CCC(C)C(CCC(=O)N[C@@H](CC(C)C)C(N)=O)NC(=O)[C@H](Cc1c[nH]cn1)N(C)C(=O)CNC(=O)[C@@H](NC(=O)[C@H](C)NC(=O)[C@H](Cc1c[nH]c2ccccc12)NC(=O)[C@H](CCC(N)=O)NC(=O)CCCCNC(=O)c1ccc(F)c(F)c1)C(C)C (stereo partly drawn) [IIB-a-50] ({Benzoyl(3,4-F2)-Ava}-QWAVG[NMeH][X1]L-NH2)",
    "Ki": "> 25 nM"
  },
  {
    "compound": "CCC(C)C(CCC(=O)N[C@@H](CC(C)C)C(N)=O)NC(=O)[C@H](Cc1c[nH]cn1)NC(=O)CNC(=O)[C@@H](NC(=O)[C@H](C)NC(=O)[C@H](Cc1c[nH]c2ccccc12)NC(=O)[C@H](CCC(N)=O)NC(=O)CCCCNC(=O)c1ccc(F)c(C#N)c1)C(C)C (stereo partly drawn) [IIB-a-17] ({Benzoyl(3-CN,4-F)-Ava}-QWAVGH[X1]L-NH2)",
    "Ki": "1.9 nM"
  }
]

* * *

# tgt: human bombesin 2 receptor (GRPR) (Homo sapiens)
# Construct: using GRPR-containing cell membranes (Perkin Elmer); purchased Perkin Elmer
# measurement.notes: competitive receptor-binding assay (scintillation proximity assay) with 125I-[Tyr4]-Bombesin
pKi: −log10 of the molar value. *1 amine or outer side, *2 acyl side, *3 side chain or, on linkers, in order; H or OH if unused. Where a SMILES comes first, the peptide text is derived from it. [ ]: non-standard residue; d: D form. The star is where a group is joined. X3 = CC(C)[C@H](N[*:1])[C@H](O)CC(=O)[*:2]; Benzoyl(3,4-F2) = O=C(c1ccc(F)c(F)c1)*; NMeH = CN[C@@H](Cc1c[nH]cn1)C(=O)O; Ava = NCCCCC(=O)O; βAla = NCCC(=O)O; Sar = CNCC(=O)O
pKi values, listed per item

[
  {
    "compound": "CC(C)C[C@H](NC(=O)[C@H](Cc1ccccc1)NC(=O)[C@H](Cc1c[nH]cn1)N(C)C(=O)CCNC(=O)[C@@H](NC(=O)[C@H](C)NC(=O)[C@H](Cc1c[nH]c2ccccc12)NC(=O)[C@H](CCC(N)=O)NC(=O)CCCCNC(=O)c1ccc(F)c(F)c1)C(C)C)C(N)=O [IIB-a-54] ({Benzoyl(3,4-F2)-Ava}-QWAV[βAla][NMeH]FL-NH2)",
    "censoring.qualifier": "=",
    "pKi": 9.40
  },
  {
    "compound": "CC(C)C[C@H](NC(=O)C[C@@H](O)[C@@H](NC(=O)[C@H](Cc1c[nH]cn1)NC(=O)CN(C)C(=O)[C@@H](NC(=O)[C@H](C)NC(=O)[C@H](Cc1c[nH]c2ccccc12)NC(=O)[C@H](CCC(N)=O)NC(=O)CCCCNC(=O)c1ccc(F)c(F)c1)C(C)C)C(C)C)C(N)=O [IIB-a-51] ({Benzoyl(3,4-F2)-Ava}-QWAV[Sar]H[X3]L-NH2)",
    "censoring.qualifier": "<",
    "pKi": 7.60
  }
]
